Overview of recorded growth inhibition for various molecules
Assay: NCI Yeast Anticancer Drug Screen. Data for the mec2-1 strain (AID 157)
Conditions: S. cerevisiae mec2-1 strain, at 5.0 µM (retest, dose inferred, filed as 0.5), active compounds read high
The panel holds about 79,000 compounds, 15% with a hit somewhere; the sample as a whole holds those more often.
MEASURED QUANTITY: growth inhibition (%)

# MOLECULE, UNIT NAME, OBSERVED VALUE
records = [
    ("Cc1c(C(C)(C)C)cc(C(C)(C)C)c(O)c1CN(C)Cc1c(C)c(C(C)(C)C)cc(C(C)(C)C)c1O", "%", -8),
    ("CC(CN(C)C)C(=O)c1cn(C)c2ccccc12 (configuration not stated)", "%", 5),
    ("CCCCN(CCCC)CCC(=O)c1ccc2c(ccc3ccccc32)c1", "%", 7),
    ("CCOC(=O)N1CCN(CCCCCCOc2ccc(C(C)(C)C)cc2)CC1", "%", 28),
    ("CC(C)NCCCNc1nc(NCCCNC(C)C)c2nc(-c3ccccc3)c(-c3ccccc3)nc2n1", "%", 1),
    ("CN(C)c1cc2c(cc1[N+](=O)[O-])-c1ccccc1C2O (configuration not stated)", "%", -1),
    ("CC(c1ccc(OCc2ccccc2)cc1)c1cc2c(cc1OCCO)OCO2 (configuration not stated)", "%", -1),
    ("CN(C)C(=O)c1ccccc1SC(=S)NCc1ccccc1", "%", -2),
    ("O=C(CNC(=O)OCc1ccccc1)NNc1ccccc1Cl", "%", 94),
    ("C=CCOC(=O)CCC(=O)N(CC)CC", "%", -1),
    ("Cc1cccc[c]1[Sn]([Cl])([O][Sn]([Cl])([c]1ccccc1C)[c]1ccccc1C)[c]1ccccc1C", "%", 46),
    ("CCCN(CCC)C(=S)N/N=C/c1cccc(C)n1", "%", -33),
    ("CCCCCc1cccc(CC(=O)OCC)n1", "%", -50),
    ("Clc1ccccc1/C=C/c1ccccn1", "%", -6),
    ("CC1(C)C(=O)N(CCCCCCN2C(=O)C(C)(C)c3ccccc32)c2ccccc21", "%", 4),
    ("CN(C)c1nc(-c2ccccc2)cc(-c2ccc(O)cc2)n1", "%", -10),
    ("Cc1cccc2ccc3cc(CC(=O)O)c4cccc(C)c4c3c12", "%", 33),
]

###

Assay: NCI Yeast Anticancer Drug Screen. Data for the sgs1 mgt1 strain (AID 161);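 further: 0% = growth of cultures given vehicle only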
Settings: S. cerevisiae sgs1 mgt1 strain, at 50.0 µM, active compounds read high
Protocol: Growth inhibition of yeast strains with defined genetic alterations is measured as a screen for potential anti-cancer activity. Selected strains with alterations in DNA damage repair or cell cycle control were exposed to compounds and growth inhibition was measured relative to vehicle treated controls. The strain used in this assay is sgs1 mgt1
About 79,000 compounds went through this panel and 15% of them were active in at least one assay; those are over-represented in the sample as a whole.

# MOLECULE, growth inhibition / %
data = [
    ("COc1ccc(OC)c2c1C=C[C@H](C1(C)SCCS1)C2C(C)=O (some centres undefined)", 80.7),
    ("O=C1OC2(c3ccccc31)c1cc(I)c(O)c(I)c1Oc1c2cc(I)c(O)c1I", 99.6),
    ("CC1(C)c2ccccc2Cc2cc3ccccc3nc21", 90.2),
    ("CC(NNC(=S)N1CCCCCC1)c1cc2ccccc2cn1 (centres undefined)", 86.6),
    ("COc1ccc(Cc2nc3ccccc3s2)cc1OC", 93.7),
    ("COC1OC(CN=[N+]=[N-])C(OC(=O)c2ccccc2)C(OC(C)=O)C1OC(C)=O (centres undefined)", 18.1),
    ("COc1ccc(C(=O)Cc2ccc(Cl)cc2)cc1OC", 10.5),
    ("CN(C)CCC(=O)c1ccc2c(ccc3ccccc32)c1", 90.5),
    ("COC(=O)[C@]1(C)CCCC2(C)C3=C(CCC21)CC1(CC3)SCCS1 (some centres undefined)", 87.6),
    ("CC[C@H](CC[C@@H](C)C1CC[C@H]2[C@@H]3CCC4=CC(=O)CC[C@]4(C)[C@H]3CC[C@]12C)C(C)C (some centres undefined)", 76),
    ("CS(=O)(=O)OC1C(O)C(n2cnc3c(N)ncnc32)C(O)C(OS(C)(=O)=O)C1OS(C)(=O)=O (centres undefined)", 3.8),
    ("Cc1ccccc1Oc1ccccc1N", 69.8),
    ("COc1cc2c(cc1OC)NCC1COc3c(ccc(OC)c3OC)C1=N2 (centres undefined)", -18.4),
    ("C[Si](C)c1cccc(Cl)c1", 6.9),
    ("BrCC1(CBr)COC1", 7.75),
    ("O=C(O)c1ccccc1NC(c1ccccc1)c1ccc2cccnc2c1O (centres undefined)", 96.8),
    ("CC(C)(C)c1ccc2c(c1)C(O)(c1ccccc1)C1OC1(C(C)(C)C)C2=O (centres undefined)", 79.3),
    ("O=c1cccccc1[O-].O=c1cccccc1[O-].O=c1cccccc1[O-].[Ce+3]", 85),
    ("C=C1C(=O)OC(CCCCCCCCCCCCC)C1C(=O)O (centres undefined)", 76.3),
]

###

Assay: NCI Yeast Anticancer Drug Screen. Data for the bub3 strain (AID 167)
Conditions: S. cerevisiae bub3 mutant strain, at 5.0 µM (retest, dose inferred, filed as 0.5)
The panel holds about 79,000 compounds, 15% with a hit somewhere; the sample as a whole holds those more often. Activity calls are given as the source filed them. No stated cut-off is given here; in the data, active means growth inhibition above about 70%; inactive means the rest.
Possible outcomes: true (1) = active, false (0) = inactive

# MOLECULE, DISCRETE LABEL
records = [
    ("S=C(Nc1ccccc1)NC1CC2C=CC1CC2 (stereo not given)", "false (0)"),
    ("CN(N(P(c1ccccc1)c1ccccc1)P(c1ccccc1)c1ccccc1)P(c1ccccc1)c1ccccc1", "false (0)"),
    ("Cc1ccc(S(=O)(=O)NNC2Oc3cc4c(cc3C(c3ccccc3O)C2C)OCO4)cc1 (stereo not given)", "false (0)"),
    ("S=C(NC(=S)Nc1ccccc1)Nc1ccccc1", "false (0)"),
    ("ON(Cc1ccccc1)C(=S)c1ccccc1", "false (0)"),
    ("CNC1C(O)C(NC)C2OC3(O)C(=O)CC(C)OC3OC2C1O (stereo not given)", "false (0)"),
    ("CC(=O)OCCSCCOC(C)=O", "false (0)"),
    ("O=C1CN(c2cccc(Cl)c2)C(=O)CN1/N=C/c1ccc[nH]1", "false (0)"),
    ("CCCN(CCC)C(=O)c1nc(N)nc(-c2ccc(OC)cc2)c1-c1ccc(OC)cc1", "false (0)"),
    ("NC(=Nc1cc2ccccc2c2ccccc12)Nc1cc2ccccc2c2ccccc12", "false (0)"),
    ("CS(C)=O.[Cl-].[Cl-].[NH-]CC(O)CN(Cc1ccccc1)CC(O)CN.[Pt] (stereo not given)", "false (0)"),
    ("O=C1OCC/C1=C1/CCOC1", "false (0)"),
    ("CCOC(=O)c1ccc(O)c(OC)c1", "false (0)"),
    ("CCOC(=O)C(/C=N\\C(=S)Nc1ccc(Cl)c(Cl)c1)=C(/O)c1ccccc1", "false (0)"),
    ("O=C1OC(CCl)CC12CC(CCl)OC2=O (stereo not given)", "false (0)"),
    ("CS/C(=N\\N=C(/C)c1ccccn1)N1CCN(c2ccccn2)CC1", "false (0)"),
    ("COc1ccc2c(c1)C=C([N+](=O)[O-])C(C1OC(C)(C)OC1C1COC(C)(C)O1)O2 (stereo not given)", "false (0)"),
    ("CC12CCCCC1CCC(Br)C2=O (stereo not given)", "false (0)"),
    ("COc1ccc2c(c1)[n+]([O-])c(-c1ccc(Cl)cc1)c(N)[n+]2[O-]", "true (1)"),
    ("O=C(O)/C=C/c1c2ccccc2cc2ccccc12", "true (1)"),
    ("S=P([S][Sn]([S]P(=S)(c1ccccc1)c1ccccc1)([c]1ccccc1)[c]1ccccc1)(c1ccccc1)c1ccccc1", "false (0)"),
    ("COC(=O)/C=C(\\NC1CC(OC2C[C@](O)(C(C)=O)Cc3c(O)c4c(c(O)c32)C(=O)c2c(OC)cccc2C4=O)OC(C)C1O)C(=O)OC (stereo not given in full)", "false (0)"),
    ("O=C(O)/C(=C/c1ccccc1)c1ccc2ccccc2c1Br", "false (0)"),
    ("CCCCCCCCCCCC[n+]1ccc(C#N)cc1", "false (0)"),
    ("N#CNc1nc(N)c(-c2ccc(Cl)cc2)c(C(=O)Nc2ccc(Cl)c(Cl)c2)n1", "false (0)"),
    ("O=C1c2ccccc2C(=O)c2c1cc(O)c(O)c2O", "false (0)"),
    ("COc1ccc2c(Cc3ccc(Cl)cc3)cncc2c1O", "false (0)"),
    ("CCN1CC(=O)N(C)C1=S", "false (0)"),
    ("COc1ccc2c3c(ccc2c1)NC(C(=O)O)CC3 (stereo not given)", "false (0)"),
    ("O=C1C=CC(=O)c2c1cc1ccccc1c2O", "false (0)"),
    ("CCN(CC)CCCC(C)Nc1cc(F)cc2cccnc12 (stereo not given)", "false (0)"),
    ("COc1ccc2c(c1)Cc1ccccc1C2=O", "true (1)"),
    ("CCOc1ccccc1C(=O)Nc1cc(C)nn1-c1ccccc1", "false (0)"),
    ("COc1ccc(C2COc3cc(O)c(O)cc3C2)cc1OC (stereo not given)", "false (0)"),
    ("CN[C@@H](Cc1cccc2ccccc12)C(=O)N[C@@H](CC(C)C)B(O)O", "false (0)"),
    ("COc1cc2cc[n+]3c4ccc([N+](=O)[O-])cc4ccc3c2cc1OC", "false (0)"),
    ("O=C(CCn1[nH]c(=O)c(Cl)c(Cl)c1=O)NNc1ccc([N+](=O)[O-])cc1[N+](=O)[O-]", "false (0)"),
    ("Clc1ccc(C(c2ccc(Cl)cc2)c2cncnc2)cc1", "false (0)"),
    ("COc1ccc2c(c1)CCCN2S(=O)(=O)c1ccc(N)cc1", "false (0)"),
    ("CN(C)C1C=CCC(c2ccccc2)C1[N+](=O)[O-] (stereo not given)", "false (0)"),
]

Cited source: PubChem BioAssay (NCI)
